Listed below: remaining activity at 0.03 % values for each entry.
biological target: firefly luciferase (Photinus pyralis, UniProt P08659); assay: Quaternary ammonium/phosphonium detergent screen, firefly luciferase (Example 5); assay type: biochemical; conditions: final conc. 0.03% detergent; Tergitol NP-9 present; read-out: Retained Firefly Luciferase Luminescence (%)
Sequence (P08659 whole entry): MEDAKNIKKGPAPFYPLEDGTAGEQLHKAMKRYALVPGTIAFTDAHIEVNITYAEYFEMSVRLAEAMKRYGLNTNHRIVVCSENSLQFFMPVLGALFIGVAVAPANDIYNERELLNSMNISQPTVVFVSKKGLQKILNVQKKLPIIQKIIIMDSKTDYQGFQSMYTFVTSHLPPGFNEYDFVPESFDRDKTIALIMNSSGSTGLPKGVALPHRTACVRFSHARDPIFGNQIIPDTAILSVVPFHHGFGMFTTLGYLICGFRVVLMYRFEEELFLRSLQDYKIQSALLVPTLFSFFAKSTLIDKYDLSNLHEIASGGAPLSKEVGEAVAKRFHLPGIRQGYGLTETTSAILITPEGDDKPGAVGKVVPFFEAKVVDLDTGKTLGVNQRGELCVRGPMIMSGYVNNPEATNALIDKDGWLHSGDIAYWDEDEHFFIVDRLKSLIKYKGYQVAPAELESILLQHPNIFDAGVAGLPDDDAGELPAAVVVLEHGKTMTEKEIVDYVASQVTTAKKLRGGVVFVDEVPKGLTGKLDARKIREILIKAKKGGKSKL
The reply should be a number in %, with the unit left off.

Reference set (3 entries):
{"Compound": "C[P+](C)(Cc1ccc([N+](=O)[O-])cc1)c1ccccc1.[Br-]", "Target desc": "firefly luciferase (Photinus pyralis, UniProt P08659)", "Metric": "remaining activity at 0.03 %", "Result number": 99}
{"Compound": "CCCCCCCCCCCCCCCC[N+](C)(C)Cc1ccccc1.[Cl-] [Benzyldimethylhexadecylammonium chloride]", "Target desc": "firefly luciferase (Photinus pyralis, UniProt P08659)", "Metric": "remaining activity at 0.03 %", "Result number": 100}
{"Compound": "CCCCCCCCCCCC[N+](C)(C)Cc1ccccc1.[Br-] [Benzyldimethyldodecylammonium bromide]", "Target desc": "firefly luciferase (Photinus pyralis, UniProt P08659)", "Metric": "remaining activity at 0.03 %", "Result number": 100}

# context switch: different compound, same remaining activity at 0.03 %
Recorded result, C=C(C)[P+](C)(c1ccccc1)c1ccccc1.[I-] , remaining activity at 0.03 %: 95
